- method-notes: Activation of Schistosoma mansoni in TRPM binding site of PZQ expressed in HEK293 cells assessed as effect in cytosolic Ca2+ level measured for 250 sec by […] NW staining based FLIPR assay
- Assay type: cell-based
- condition-description: Schistosoma mansoni, HEK293; read-out: EC50
quantity-measured: EC50

q: Please look at this compound and report its EC50: O=C(c1cccnc1)N1CC(=O)N2CCc3ccccc3[C@@H]2C1
a: > 100 µM

----------
- System: Schistosoma mansoni
- method-notes: Antischistosomal activity against Schistosoma mansoni assessed as maximal effect at <= 320 uM
- Format: functional, organism-based
Calls of active or inactive are those of the source. The calls are words filed in the database; no cut-off is given here.
Hi there, use one of these labels in your reply, thanks! YES for active, NO for inactive

Worked examples follow.
q: What is the recorded call for this compound in the test? O=C(C1CCCCC1)N1CC(=O)N2CCc3ccccc3[C@H]2C1
a: YES

q: What is the recorded call for this compound in the test? O=C(C1CC1)N1CC(=O)N2CCc3ccccc3C2C1 (stereo not given)
a: NO

q: What is the recorded call for this compound in the test? O=C(c1cccnc1)N1CC(=O)N2CCc3ccccc3C2C1 (racemic)
a: YES

---
q: What is the recorded call for this compound in the test? O=C(c1cccnc1)N1CC(=O)N2CCc3ccccc3[C@H]2C1
a: NO

q: What is the recorded call for this compound in the test? CN(C)c1ccc(C(=O)N2CC(=O)N3CCc4ccccc4C3C2)cc1 (stereo not given)
a: NO

q: What is the recorded call for this compound in the test? Nc1ccc(C(=O)N2CC(=O)N3CCc4ccccc4C3C2)cc1 (stereo not given)
a: YES

q: What is the recorded call for this compound in the test? O=C(c1ccc([N+](=O)[O-])cc1)N1CC(=O)N2CCc3ccccc3C2C1 (stereo not given)
a: NO

q: What is the recorded call for this compound in the test? O=C(c1cccnc1)N1CC(=O)N2CCc3ccccc3[C@@H]2C1
a: NO

q: What is the recorded call for this compound in the test? CNc1ccc(C(=O)N2CC(=O)N3CCc4ccccc4C3C2)cc1 (stereo not given)
a: NO

q: What is the recorded call for this compound in the test? N[C@H]1CC[C@@H](C(=O)N2CC(=O)N3CCc4ccccc4C3C2)CC1 (stereo not given in full)
a: NO
